Data origin: the OPERA property sets (Mansouri et al. 2018)

Items are presented alongside their recorded boiling point.
Could you give me the number in °C? Just the number is fine.

Use the examples below as a reference point.
# molecule, boiling point (°C)
rows = [
    ("CCCCNCCO", 199),
    ("CN(C)c1ccc(Br)cc1", 264),
    ("CC(=O)N1CCCC(C)C1 (stereo not given)", 239),
    ("CC1=CC(C)(C)Nc2ccccc21", 260),
]

Could you now look at the following molecule, please?
GET /value?item= `NC(=O)C(F)(F)F` &field=boiling point returns 162

====

assay.readout: boiling point (°C)
Could you give me the number in °C? Just the number is fine.

Use the examples below as a reference point.
# molecule, boiling point, °C
records = [
    ("Clc1c(Cl)c(Cl)c(C(Cl)Cl)c(Cl)c1Cl", 334),
    ("FC(F)I", 21.6),
    ("BrCCI", 163),
    ("CCCC(C)(C)CC(C)C", 151),
    ("CCCC(=O)OCCOc1ccccc1", 251),
]

GET /value?item= `C1CCCCCCCCCCC1` &field=boiling point returns 247

GET /value?item= `CCCCCC[C@H](C)I` &field=boiling point returns 210

GET /value?item= CC12CCC(C(Br)C1=O)C2(C)C (stereo not given) &field=boiling point returns 274

GET /value?item= `CCC#CC(C)C` &field=boiling point returns 95.2

GET /value?item= `Sc1ccccc1Cl` &field=boiling point returns 206

====

Items are presented alongside their recorded log10 BCF.
Settings: fish

# compound, log10 BCF
data = [
    ("CCCCCCCCN(CCCCCCCC)CCCCCCCC", 1.93),
    ("CC=C1CC2C=CC1C2 (stereo unspecified)", 2.04),
    ("CCOC(=O)CC(SP(=O)(OC)OC)C(=O)OCC (stereo unspecified)", 0.05),
    ("Cc1cc(O)ccc1[N+](=O)[O-]", 1.06),
    ("N#Cc1ccc(C#N)cc1", 0.3),
]

Could you now look at the following compound, please?
GET /value?item= `ClC=C(Cl)Cl` &field=log10 BCF returns 1.2

====

assay.readout: melting point

GET /value?item= `NC(=O)c1cccc(Br)c1` &field=melting point returns 155 °C

====

Items are presented alongside their recorded melting point.
Could you give me the number in °C? Just the number is fine.

Use the examples below as a reference point.
# molecule, value.observed
rows = [
    ("Clc1cc(Cl)c2cc(Cl)cc(Cl)c2c1", 180),
    ("C[SiH]1O[SiH](C)O[SiH](C)O[SiH](C)O1 (stereo not drawn)", -65),
]

Could you now look at the following molecule, please?
GET /value?item= `Oc1ccc2cccc(Cl)c2c1` &field=melting point returns 101

====

Items are presented alongside their recorded log10 vapour pressure (mmHg).
Just the number, please, no unit after it.

# compound, value.observed
data = [
    ("C=C(C)C(=C)C", 2.18),
]

GET /value?item= `C#CC(C)(C)NC(=O)c1cc(Cl)cc(Cl)c1` &field=log10 vapour pressure (mmHg) returns -6.36

GET /value?item= `Cc1cccc(Br)c1` &field=log10 vapour pressure (mmHg) returns 0.185

GET /value?item= CCC(C)N (centres undefined) &field=log10 vapour pressure (mmHg) returns 2.25

====

assay.readout: melting point (°C)
Could you give me the number in °C? Just the number is fine.

# smiles.entry, unit.abbreviation, melting point
records = [
    ("Cc1c(Cl)c(=O)oc2cc(OP(=O)(OCCCl)OCCCl)ccc12", "°C", 91),
]

GET /value?item= `NCCNCCO` &field=melting point returns -38

GET /value?item= `O=C1c2cccc(O)c2C(=O)c2c(O)cccc21` &field=melting point returns 193

GET /value?item= `NS(=O)(=O)c1ccc(S(=O)(=O)CCO)c(F)c1` &field=melting point returns 165

GET /value?item= `NC(=O)NNc1ccccc1` &field=melting point returns 172

GET /value?item= `CC(=O)Oc1ccccc1` &field=melting point returns -30

GET /value?item= `ON=Cc1ccncc1` &field=melting point returns 132

GET /value?item= `Cc1coc2ccccc2c1=O` &field=melting point returns 68
